assay: ATG_AP_2_CIS: Attagene CIS-FACTORIAL HepG2 Assay for human Activator Protein 2 (AP-2) (AID 2282932); conditions: HepG2 AP-2 cis-reporter, Attagene transcription factor profiling; actives raise or lower the signal
Calls of active or inactive are those of the source. How the source made its calls: active means hit-call score of the fitted dose curve at least 0.9, where 1 is the maximum; inactive means score below 0.9.
Please reply with one of these outcomes: 1 = active, 0 = inactive

> print(dat)
                            compound  qualitativelabel
1  CN(C)Cc1cc(CN(C)C)c(O)c(CN(C)C)c1                 0
2               CCOc1ccc(NC(N)=O)cc1                 0
3              CC(C)c1cccc(C(C)C)c1N                 0
4        CC(C)c1cc(C(C)C)cc(C(C)C)c1                 1
5                         Clc1cccnc1                 0

Hi, sorry to bother you, what did the test record for CCCCC(CC)COC(=O)/C=C/c1ccc(OC)cc1 (centres undefined) ?
0

Hi, sorry to bother you, what did the test record for CCCCOC(=O)C(C)CC (centres undefined) ?
0

Hi, sorry to bother you, what did the test record for `C=CCCCCCCCCOC(C)=O` ?
0

Hi, sorry to bother you, what did the test record for O=C(O)CC(C(=O)O)S(=O)(=O)O (centres undefined) ?
0

Hi, sorry to bother you, what did the test record for `CCCCCCCCCC(C)=O` ?
0

Hi, sorry to bother you, what did the test record for `CC/C=C\C/C=C\C/C=C\CCCCCCCC(=O)OC` ?
1

Hi, sorry to bother you, what did the test record for `CC1(C)CC(O)CC(C)(C)N1[O]` ?
0

Hi, sorry to bother you, what did the test record for `Cc1c(C(=O)c2c[nH]n(C)c2=O)ccc(S(C)(=O)=O)c1C1=NOCC1` ?
0

Hi, sorry to bother you, what did the test record for `C=C(C)C(=O)OCCOC(=O)C(=C)C` ?
0

# credit: PubChem BioAssay (EPA / NIEHS)
